Tested on: Zebrafish wild-type (WT) embryos
Assay: Absorption (internal concentration) of cephalosporins in zebrafish embryos by LC-MS/MS
Settings: zebrafish embryos exposed to 1 mM drug solution, 6 hpf-3 dpf
readout: Internal concentration (mM × 10^-5)

# test_smiles, readout, numeric_value
data = [
    ("CC(C)(O/N=C(\\C(=O)N[C@@H]1C(=O)N2C(C(=O)[O-])=C(C[n+]3ccccc3)CS[C@H]12)c1csc(N)n1)C(=O)O", "Internal concentration", 2.45),
    ("CN(C)CCn1nnnc1SCC1=C(C(=O)O)N2C(=O)[C@@H](NC(=O)Cc3csc(N)n3)[C@H]2SC1", "Internal concentration", 1.31),
    ("CO/N=C(\\C(=O)N[C@@H]1C(=O)N2C(C(=O)O)=C(CSc3nc(C)c(CC(=O)O)s3)CS[C@H]12)c1csc(N)n1", "Internal concentration", 0.94),
    ("O=C(Cn1cnnn1)N[C@@H]1C(=O)N2C(C(=O)O)=C(CSc3nncs3)CS[C@H]12", "Internal concentration", 7.08),
    ("Cc1nnc(SCC2=C(C(=O)O)N3C(=O)[C@@H](NC(=O)Cn4cnnn4)[C@H]3SC2)s1", "Internal concentration", 13.95),
    ("CC1=C(C(=O)O)N2C(=O)[C@@H](NC(=O)[C@H](N)C3=CCC=CC3)[C@H]2SC1", "Internal concentration", 8.93),
    ("CC(=O)OCC1=C(C(=O)O)N2C(=O)[C@@H](NC(=O)CSC(=NC(C)C)NC(C)C)[C@H]2SC1", "Internal concentration", 1.29),
]

----------
Test system: Zebrafish wild-type (WT) embryos
Experiment: Absorption (internal concentration) of cephalosporins in zebrafish embryos by LC-MS/MS
Conditions: zebrafish embryos exposed to 1 mM drug solution, 6 hpf-3 dpf
readout: Internal concentration (mM × 10^-5)

# test_smiles, numeric_value
records = [
    ("CO[C@@]1(NC(=O)Cc2cccs2)C(=O)N2C(C(=O)O)=C(COC(N)=O)CS[C@@H]21", 12.73),
    ("CO/N=C(\\C(=O)N[C@@H]1C(=O)N2C(C(=O)[O-])=C(C[n+]3cccc4c3CCC4)CS[C@H]12)c1csc(N)n1", 0.86),
    ("CO/N=C(\\C(=O)N[C@@H]1C(=O)N2C(C(=O)O)=C(CSc3nnnn3C)CS[C@H]12)c1csc(N)n1", 0.71),
    ("CC1=C(C(=O)O)N2C(=O)[C@@H](NC(=O)[C@H](N)c3ccccc3)[C@H]2SC1", 5.48),
]

----------
System: Zebrafish wild-type (WT) embryos
Experiment: Absorption (internal concentration) of cephalosporins in zebrafish embryos by LC-MS/MS
Details: zebrafish embryos, 0.28, 1.0 and 2.0 mM, 6 hpf-3 dpf; higher k = more readily absorbed
// classify(record): look up k-value (slope of the dose-internal concentration linear regression) in ranges low bracket = under 3, middle bracket = from 3 up to 6, high bracket = 6 and over

# test_smiles, class
data = [
    ("CO/N=C(\\C(=O)N[C@@H]1C(=O)N2C(C(=O)O)=CCS[C@H]12)c1csc(N)n1", "high bracket"),
    ("CO[C@@]1(NC(=O)Cc2cccs2)C(=O)N2C(C(=O)O)=C(COC(N)=O)CS[C@@H]21", "high bracket"),
    ("CO/N=C(\\C(=O)N[C@@H]1C(=O)N2C(C(=O)O)=C(COC(N)=O)CS[C@H]12)c1ccco1", "low bracket"),
    ("CN(C)CCn1nnnc1SCC1=C(C(=O)O)N2C(=O)[C@@H](NC(=O)Cc3csc(N)n3)[C@H]2SC1", "low bracket"),
    ("CC1=C(C(=O)O)N2C(=O)[C@@H](NC(=O)[C@H](N)C3=CCC=CC3)[C@H]2SC1", "high bracket"),
    ("CC(C)(O/N=C(\\C(=O)N[C@@H]1C(=O)N2C(C(=O)[O-])=C(C[n+]3ccccc3)CS[C@H]12)c1csc(N)n1)C(=O)O", "middle bracket"),
    ("CC(=O)OCC1=C(C(=O)O)N2C(=O)[C@@H](NC(=O)CSC(=NC(C)C)NC(C)C)[C@H]2SC1", "low bracket"),
    ("CCN1CCN(C(=O)N[C@@H](C(=O)N[C@@H]2C(=O)N3C(C(=O)O)=C(CSc4nnnn4C)CS[C@H]23)c2ccc(O)cc2)C(=O)C1=O", "high bracket"),
    ("CO/N=C(\\C(=O)N[C@@H]1C(=O)N2C(C(=O)O)=C(CSc3nc(C)c(CC(=O)O)s3)CS[C@H]12)c1csc(N)n1", "low bracket"),
    ("O=C(Cn1cnnn1)N[C@@H]1C(=O)N2C(C(=O)O)=C(CSc3nncs3)CS[C@H]12", "middle bracket"),
    ("CC1=C(C(=O)O)N2C(=O)[C@@H](NC(=O)[C@H](N)c3ccc(O)cc3)[C@H]2SC1", "high bracket"),
    ("N[C@@H](C(=O)N[C@@H]1C(=O)N2C(C(=O)O)=C(Cl)CS[C@H]12)c1ccccc1", "middle bracket"),
    ("CO/N=C(\\C(=O)N[C@@H]1C(=O)N2C(C(=O)O)=C(CSc3nnnn3C)CS[C@H]12)c1csc(N)n1", "low bracket"),
    ("CC1=C(C(=O)O)N2C(=O)[C@@H](NC(=O)[C@H](N)c3ccccc3)[C@H]2SC1", "high bracket"),
]

----------
Test system: Zebrafish wild-type (WT) embryos
Assay: Absorption (internal concentration) of cephalosporins in zebrafish embryos by LC-MS/MS
Conditions: zebrafish embryos exposed to 0.28 mM drug solution, 6 hpf-3 dpf
// classify(record): look up Internal concentration in ranges zone 1 = under 0.3 mM × 10^-5, zone 2 = from 0.3 mM × 10^-5 up to 1 mM × 10^-5, zone 3 = 1 mM × 10^-5 and over

# test_smiles, class
records = [
    ("O=C(Cn1cnnn1)N[C@@H]1C(=O)N2C(C(=O)O)=C(CSc3nncs3)CS[C@H]12", "zone 3"),
    ("CO/N=C(\\C(=O)N[C@@H]1C(=O)N2C(C(=O)[O-])=C(C[n+]3cccc4c3CCC4)CS[C@H]12)c1csc(N)n1", "zone 1"),
    ("CC1=C(C(=O)O)N2C(=O)[C@@H](NC(=O)[C@H](N)c3ccc(O)cc3)[C@H]2SC1", "zone 3"),
    ("CO/N=C(\\C(=O)N[C@@H]1C(=O)N2C(C(=O)O)=C(CSc3nc(C)c(CC(=O)O)s3)CS[C@H]12)c1csc(N)n1", "zone 2"),
    ("CC(=O)OCC1=C(C(=O)O)N2C(=O)[C@@H](NC(=O)CSC(=NC(C)C)NC(C)C)[C@H]2SC1", "zone 2"),
    ("CO/N=C(\\C(=O)N[C@@H]1C(=O)N2C(C(=O)O)=C(COC(C)=O)CS[C@H]12)c1csc(N)n1", "zone 1"),
    ("CC(C)(O/N=C(\\C(=O)N[C@@H]1C(=O)N2C(C(=O)[O-])=C(C[n+]3ccccc3)CS[C@H]12)c1csc(N)n1)C(=O)O", "zone 1"),
    ("CO/N=C(\\C(=O)N[C@@H]1C(=O)N2C(C(=O)O)=CCS[C@H]12)c1csc(N)n1", "zone 3"),
    ("Cc1nnc(SCC2=C(C(=O)O)N3C(=O)[C@@H](NC(=O)Cn4cnnn4)[C@H]3SC2)s1", "zone 3"),
    ("CCN1CCN(C(=O)N[C@@H](C(=O)N[C@@H]2C(=O)N3C(C(=O)O)=C(CSc4nnnn4C)CS[C@H]23)c2ccc(O)cc2)C(=O)C1=O", "zone 3"),
    ("CN(C)CCn1nnnc1SCC1=C(C(=O)O)N2C(=O)[C@@H](NC(=O)Cc3csc(N)n3)[C@H]2SC1", "zone 1"),
    ("CO/N=C(\\C(=O)N[C@@H]1C(=O)N2C(C(=O)O)=C(CSc3nnnn3C)CS[C@H]12)c1csc(N)n1", "zone 1"),
]

----------
// reported Internal concentration per item
System: Zebrafish wild-type (WT) embryos
Test: Absorption (internal concentration) of cephalosporins in zebrafish embryos by LC-MS/MS
Conditions: zebrafish embryos exposed to 0.28 mM drug solution, 6 hpf-3 dpf
readout: Internal concentration (mM × 10^-5)

# test_smiles, readout, numeric_value
data = [
    ("CO/N=C(\\C(=O)N[C@@H]1C(=O)N2C(C(=O)O)=C(COC(N)=O)CS[C@H]12)c1ccco1", "Internal concentration", 0.68),
    ("CO[C@@]1(NC(=O)CSC(F)F)C(=O)N2C(C(=O)O)=C(CSc3nnnn3CCO)CO[C@@H]21", "Internal concentration", 1.07),
    ("CO[C@@]1(NC(=O)Cc2cccs2)C(=O)N2C(C(=O)O)=C(COC(N)=O)CS[C@@H]21", "Internal concentration", 2.22),
    ("CC1=C(C(=O)O)N2C(=O)[C@@H](NC(=O)[C@H](N)C3=CCC=CC3)[C@H]2SC1", "Internal concentration", 3.15),
]
